- tested target: Paired box protein Pax-6 (Homo sapiens)
- experiment notes: ATG_Pax6_CIS: Attagene CIS-FACTORIAL HepG2 Assay for human Paired Box 6 (PAX6) (AID 2282956)
- experimental parameters: HepG2 CIS-FACTORIAL PAX6 reporter transcription, RNA readout; actives raise or lower the signal
Activity calls are given as the source filed them. The calls were made as follows: active = hit-call score of the fitted dose curve at least 0.9, where 1 is the maximum; inactive = score below 0.9.
parameter: outcome

compound=COC(=O)CSc1cc(N=c2sc(=O)n3n2CCCC3)c(F)cc1Cl observed=inactive
compound=S=C([S-])NCCNC(=S)[S-].[Mn+2] observed=inactive
compound="C[C@]12CC[C@@H]3c4ccc(O)cc4C[C@@H](CCCCCCCCCS(=O)CCCC(F)(F)C(F)(F)F)[C@H]3[C@@H]1CC[C@@H]2O (some centres undefined)" observed=inactive
compound=N[C@@H](Cc1cc(I)c(Oc2ccc(O)c(I)c2)c(I)c1)C(=O)O observed=inactive

---

- experiment notes: BSK_LPS_SRB: Viability Assessment in the BioMAP Diversity Plus: LPS Assay (AID 2283079);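 also: total protein by sulforhodamine B absorbance as a cytotoxicity measure; measured one day after compound addition; fitted in both directions against DMSO so loss or gain of signal counts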
- experimental parameters: primary human HUVEC with PBMC
The source made the active and inactive calls. Rule for the calls: active = hit-call score of the fitted dose curve at least 0.9, where 1 is the maximum; inactive = score below 0.9.
Possible outcomes: active, inactive

molecule="CCOC(=O)C(C)Oc1ccc(Oc2nc3ccc(Cl)cc3o2)cc1 (stereo not drawn)" class_label=inactive
molecule="CC1(C)C(C=C(Cl)Cl)C1C(=O)OCc1cccc(Oc2ccccc2)c1 (stereo not drawn)" class_label=active
molecule="CCCCCCC(C)OC(=O)COc1nc(F)c(Cl)c(N)c1Cl (stereo not drawn)" class_label=active
molecule=CCOC(=O)COc1cc(-n2ncc(C(F)(F)F)c(C)c2=O)c(F)cc1Cl class_label=inactive
molecule=CC(C)(C)[C@@H](O)[C@@H](Cc1ccc(Cl)cc1)n1cncn1 class_label=inactive
molecule=COc1c(Cl)ccc(Cl)c1C(=O)O class_label=inactive
molecule="C[C@]12CC[C@@H]3c4ccc(O)cc4C[C@@H](CCCCCCCCCS(=O)CCCC(F)(F)C(F)(F)F)[C@H]3[C@@H]1CC[C@@H]2O (stereo partly drawn)" class_label=inactive
molecule=Oc1ccc(C(c2ccc(O)cc2)C(Cl)(Cl)Cl)cc1 class_label=active
molecule=COCCO class_label=inactive
molecule=CCNc1nc(N)nc(Cl)n1 class_label=inactive
molecule=CC(=O)S[C@@H]1CC2=CC(=O)CC[C@]2(C)[C@H]2CC[C@@]3(C)[C@@H](CC[C@@]34CCC(=O)O4)[C@H]12 class_label=active
molecule=OB(O)O class_label=inactive
molecule=CCCN(CCC)c1c([N+](=O)[O-])cc(C(F)(F)F)c(N)c1[N+](=O)[O-] class_label=active
molecule=CCCN(CCC)C(=O)SCC class_label=inactive
molecule="CCC(O)=C1C(=O)CC(C(=O)O)CC1=O (stereo not drawn)" class_label=inactive
molecule=CCCOC(=O)c1ccc(C(=O)OCCC)nc1 class_label=inactive
molecule=CCOC(=O)c1ccc(O)cc1 class_label=inactive
molecule=COC(=O)c1c(Cl)nn(C)c1S(=O)(=O)NC(=O)Nc1nc(OC)cc(OC)n1 class_label=inactive
molecule="CCCCC(CC)COC(=O)c1ccccc1C(=O)O (stereo not drawn)" class_label=inactive
molecule=CCOC(=O)NCCOc1ccc(Oc2ccccc2)cc1 class_label=active
molecule=CSC(=O)c1cccc2nnsc12 class_label=inactive
molecule=COC(=O)c1ccc(I)cc1S(=O)(=O)NC(=O)Nc1nc(C)nc(OC)n1 class_label=inactive
molecule=O=C(Nc1ccc([N+](=O)[O-])cc1Cl)c1cc(Cl)ccc1O class_label=active

---

- Read-out: Potassium channel subfamily K member 1 (KCNK1), KCNK1 (gene 3775)
- experiment notes: LTEA_HepaRG_KCNK1: Life Technologies and Expression Analysis (LTEA) Assay for Potassium channel subfamily K member 1 (KCNK1) using HepaRG (AID 2283511)
- experimental parameters: mRNA level, 48 h; actives raise or lower the signal
Calls of active or inactive are those of the source. The calls were made as follows: active = hit-call score of the fitted dose curve at least 0.9, where 1 is the maximum; inactive = score below 0.9.
Possible outcomes: true (1) (active), false (0) (inactive)

compound=O=C(O)C1(C(=O)Nc2ccc(Cl)cc2Cl)CC1 class_label="false (0)"
compound=CCN(CC)C(=O)c1cccc(C)c1 class_label="false (0)"
compound="CCCCOC(=O)C(C)Oc1ccc(Oc2ccc(C(F)(F)F)cn2)cc1 (configuration not stated)" class_label="false (0)"
compound=N[C@@H](Cc1cc(I)c(Oc2ccc(O)c(I)c2)c(I)c1)C(=O)O class_label="false (0)"
compound=c1ccc2[nH]c(-c3cscn3)nc2c1 class_label="false (0)"
compound=CCCOC(=O)NCCCN(C)C class_label="false (0)"
compound="CCCCCCC(C)OC(=O)COc1nc(F)c(Cl)c(N)c1Cl (configuration not stated)" class_label="false (0)"
compound=O=C(c1ccc(O)cc1O)c1ccc(O)cc1O class_label="false (0)"
compound=O=C(O)c1ccccc1 class_label="false (0)"
compound=COC(=O)c1ccccc1C(=O)O class_label="false (0)"
compound=C#CCOC(=O)[C@@H](C)Oc1ccc(Oc2ncc(Cl)cc2F)cc1 class_label="false (0)"
compound=COc1c(Cl)ccc(Cl)c1C(=O)O class_label="false (0)"
compound="CCCCC(CC)CN1C(=O)C2C3C=CC(C3)C2C1=O (configuration not stated)" class_label="false (0)"
compound=CCCN(CCC)c1c([N+](=O)[O-])cc(C(F)(F)F)c(N)c1[N+](=O)[O-] class_label="false (0)"
compound="C=CCOC(Cn1ccnc1)c1ccc(Cl)cc1Cl (configuration not stated)" class_label="true (1)"
compound=COC(=O)c1ccc(I)cc1S(=O)(=O)NC(=O)Nc1nc(C)nc(OC)n1 class_label="false (0)"
compound=COCCO class_label="false (0)"

---

- Read-out: Interleukin 6 (IL6), IL6 (gene 3569)
- experiment notes: LTEA_HepaRG_IL6: Life Technologies and Expression Analysis (LTEA) Assay for Interleukin 6 (IL6) using HepaRG (AID 2283509)
- experimental parameters: mRNA level, 48 h; actives raise or lower the signal
Activity calls are given as the source filed them. How the source made its calls: active means hit-call score of the fitted dose curve at least 0.9, where 1 is the maximum; inactive means score below 0.9.
parameter: AC50

molecule=CCN(CC)C(=O)c1cccc(C)c1 parameter=AC50 observed=inactive
molecule=CC(C)(C)[C@@H](O)[C@@H](Cc1ccc(Cl)cc1)n1cncn1 parameter=AC50 observed=inactive
molecule=c1ccc(Nc2ccccc2)cc1 parameter=AC50 observed=inactive
molecule=Oc1ccc(C(c2ccc(O)cc2)C(Cl)(Cl)Cl)cc1 parameter=AC50 observed="77.1 µM (active)"
molecule="C=CCOC(Cn1ccnc1)c1ccc(Cl)cc1Cl (configuration not stated)" parameter=AC50 observed="73.7 µM (active)"
molecule=O=C(Nc1ccc([N+](=O)[O-])cc1Cl)c1cc(Cl)ccc1O parameter=AC50 observed="3.29 µM (active)"
molecule=Cc1nn(C)c(Oc2ccccc2)c1C=NOCc1ccc(C(=O)OC(C)(C)C)cc1 parameter=AC50 observed="5.23 µM (active)"
molecule=CCCN(CCC)c1c([N+](=O)[O-])cc(C(F)(F)F)c(N)c1[N+](=O)[O-] parameter=AC50 observed=inactive
molecule=O=C(O)C1(C(=O)Nc2ccc(Cl)cc2Cl)CC1 parameter=AC50 observed=inactive
molecule=COC(=O)c1ccccc1C(=O)O parameter=AC50 observed=inactive
molecule=N[C@@H](Cc1cc(I)c(Oc2ccc(O)c(I)c2)c(I)c1)C(=O)O parameter=AC50 observed=inactive
molecule=CCCCCOC(=O)COc1cc(N2C(=O)C3=C(CCCC3)C2=O)c(F)cc1Cl parameter=AC50 observed=inactive

---

- Read-out: Collagen III, COL3A1 (gene 1281)
- experiment notes: BSK_hDFCGF_CollagenIII: BioMAP Diversity Plus: hDFCGF Assay for Collagen III Biomarker Activity (AID 2283056)
- experimental parameters: primary human foreskin fibroblasts; actives raise or lower the signal
Active and inactive are the calls of the source. How the source made its calls: active means hit-call score of the fitted dose curve at least 0.9, where 1 is the maximum; inactive means score below 0.9.
Possible outcomes: active, inactive

molecule=COC(=O)c1ccccc1C(=O)O class_label=inactive
molecule=CC(C)CCCCCCc1ccc(O)cc1 class_label=active
molecule=COC(=O)c1c(Cl)nn(C)c1S(=O)(=O)NC(=O)Nc1nc(OC)cc(OC)n1 class_label=inactive
molecule="CCC(O)=C1C(=O)CC(C(=O)O)CC1=O (stereo unspecified)" class_label=inactive
molecule=C[C@]12C[C@H](O)[C@H]3[C@@H](CCC4=CC(=O)CC[C@@]43C)[C@@H]1CC[C@@H]2C(=O)CO class_label=inactive
molecule=CCOC(=O)NCCOc1ccc(Oc2ccccc2)cc1 class_label=active
molecule=O=C(O)C1(C(=O)Nc2ccc(Cl)cc2Cl)CC1 class_label=active
molecule=c1ccc(Nc2ccccc2)cc1 class_label=inactive
molecule=CC(=O)[C@H]1CC[C@H]2[C@@H]3CCC4=CC(=O)CC[C@]4(C)[C@H]3CC[C@]12C class_label=active
molecule=c1ccc2[nH]c(-c3cscn3)nc2c1 class_label=inactive
molecule=C#CCOC(=O)[C@@H](C)Oc1ccc(Oc2ncc(Cl)cc2F)cc1 class_label=inactive

---

- Read-out: ABC Transporter (ABCC3), ABCC3 (gene 8714)
- experiment notes: LTEA_HepaRG_ABCC3: Life Technologies and Expression Analysis (LTEA) Assay for ABC Transporter (ABCC3) using HepaRG (AID 2283462)
- experimental parameters: mRNA level, 48 h; actives raise or lower the signal
- Procedure: LTEA_HepaRG is a cell based, multiplexed-readout assay that uses HepaRG, a human liver cell line, with measurements taken at 48 hours after chemical dosing on a 96-well plate.LTEA_HepaRG_ABCC3 is one of 102 assay component(s) measured in the LTEA HepaRG cell culture assay. It is a marker of NR mediated transport.Data from the assay component LTEA_HepaRG_ABCC3 was analyzed into 1 endpoint. […]
Active and inactive are the calls of the source. Rule for the calls: active = hit-call score of the fitted dose curve at least 0.9, where 1 is the maximum; inactive = score below 0.9.
Possible outcomes: active, inactive

molecule=C#C[C@]1(O)CC[C@H]2[C@@H]3CCC4=CC(=O)CC[C@@H]4[C@H]3CC[C@@]21CC class_label=inactive
molecule="CCCCC(CC)CN1C(=O)C2C3C=CC(C3)C2C1=O (configuration not stated)" class_label=active
molecule=COc1c(Cl)ccc(Cl)c1C(=O)O class_label=inactive
molecule="CCCCOC(=O)C(C)Oc1ccc(Oc2ccc(C(F)(F)F)cn2)cc1 (configuration not stated)" class_label=inactive
molecule=N[C@@H](Cc1cc(I)c(Oc2ccc(O)c(I)c2)c(I)c1)C(=O)O class_label=inactive
molecule=Oc1ccc(C(c2ccc(O)cc2)C(Cl)(Cl)Cl)cc1 class_label=inactive
molecule=C[C@]12C[C@H](O)[C@H]3[C@@H](CCC4=CC(=O)CC[C@@]43C)[C@@H]1CC[C@@H]2C(=O)CO class_label=inactive
